Tested on: U2OS
procedure.text: MTS cytotoxicity assay, 72 h
Assay type: cell-based, human
reported.conditions: Homo sapiens, U2OS, 72 h, read-out: IC50 U2OS, MTS assay, 3-day incubation, mean ± SD
result.type: IC50

Fill in reported IC50 for this entry: COc1cc2c(c(OC)c1OC)-c1ccc(OC)c(=O)cc1[C@@H](NC(=O)CCCC[N+](C)(C)CCCCC1=C3C(C)=CC(C)=[N+]3[B-](F)(F)n3c(C)cc(C)c31)CC2 > 50 µM

Fill in reported IC50 for this entry: COc1cc2c(c(OC)c1OC)-c1ccc(N(C)C(=O)CCC3=C4C(C)=CC(C)=[N+]4[B-](F)(F)n4c(C)cc(C)c43)c(=O)cc1[C@@H](NC(C)=O)CC2 9.12 µM

Fill in reported IC50 for this entry: COc1cc2c(c(OC)c1OC)-c1ccc(OC)c(=O)cc1[C@@H](NC(=O)CCCCCCCCCCC1=C3C(C)=CC(C)=[N+]3[B-](F)(F)n3c(C)cc(C)c31)CC2 > 50 µM

Fill in reported IC50 for this entry: COc1cc(C2=C3C(C)=CC(C)=[N+]3[B-](F)(F)n3c(C)cc(C)c32)ccc1OCc1cn([C@H]2CCc3cc(OC)c(OC)c(OC)c3-c3ccc(OC)c(=O)cc32)n[n+]1C > 50 µM

Fill in reported IC50 for this entry: COc1cc2c(c(OC)c1OC)-c1ccc(OC)c(=O)cc1[C@@H](n1cc(CCCCCCCCC3=C4C(C)=CC(C)=[N+]4[B-](F)(F)n4c(C)cc(C)c43)[n+](C)n1)CC2 11.9 µM

Fill in reported IC50 for this entry: COc1cc2c(c(OC)c1OC)-c1ccc(OC)c(=O)cc1[C@@H](n1cc(CCCC3=C4C(C)=CC(C)=[N+]4[B-](F)(F)n4c(C)cc(C)c43)[n+](C)n1)CC2 < 2 µM

Fill in reported IC50 for this entry: COc1cc2c(c(OC)c1OC)-c1ccc(N(C)CCCCC3=C4C(C)=CC(C)=[N+]4[B-](F)(F)n4c(C)cc(C)c43)c(=O)cc1[C@@H](NC(C)=O)CC2 4.62 µM

Fill in reported IC50 for this entry: COc1cc2c(c(OC)c1OC)-c1ccc(OC)c(=O)cc1[C@@H](n1cc(CCCCCCCCC3=C4C(C)=CC(C)=[N+]4[B-](F)(F)n4c(C)cc(C)c43)nn1)CC2 < 2 µM

Fill in reported IC50 for this entry: COc1cc2c(c(OC)c1OC)-c1ccc(NCCCCC3=C4C(C)=CC(C)=[N+]4[B-](F)(F)n4c(C)cc(C)c43)c(=O)cc1[C@@H](NC(C)=O)CC2 > 50 µM

The measured values listed here are drawn from paper PMC12261228.
